The following molecules are shown together with reported Kp values.
assay.explanation: Screening pharmacokinetic study, plasma and brain (LC-MS/MS)
Assay type: in vivo, mice (C57BL6/J)
conditions.used: male, C57BL6/J, mouse, brain and plasma, iv, brain Cmax relative to plasma Cmax, mice, intravenous route, group 1-2 mg/kg; read-out: % Cmax
// no unit, no text: just the number

Study these solved cases before continuing.
1. CC(C)Sc1cc(/C=N/O)nc2c1ccc1cccnc12 : 3.71
2. COCCOc1cc(/C=N/O)nc2c1ccc1cccnc12 : 0.0524
3. CSc1cc(/C=N/O)nc2c1ccc1cccnc12 : 1.33

Let's switch to this molecule now.
In one line, give reported Kp of the entry CCN(CC)CCOc1cc(/C=N/O)nc2c1ccc1cccnc12 .
0.137

---

The following compounds are shown together with reported Cmax values.
assay.explanation: Screening pharmacokinetic study, plasma and brain (LC-MS/MS)
Assay type: in vivo, mice (C57BL6/J)
conditions.used: male, C57BL6/J, mouse; mice, intravenous route, group 1-2 mg/kg (Compound 4, 8: 1.00; 7: 1.20; 10: 2.00 mg/Kg), plasma
Note: unit ng/mL is implicit; provide only the numeric part.

1. CCN(CC)CCOc1cc(/C=N/O)nc2c1ccc1cccnc12 : 136

In one line, give reported Cmax of the entry CSc1cc(/C=N/O)nc2c1ccc1cccnc12 .
78.7

In one line, give reported Cmax of the entry COCCOc1cc(/C=N/O)nc2c1ccc1cccnc12 .
690

In one line, give reported Cmax of the entry CC(C)Sc1cc(/C=N/O)nc2c1ccc1cccnc12 .
104

---

assay.explanation: Screening pharmacokinetic study, plasma and brain (LC-MS/MS)
Assay type: in vivo, mice (C57BL6/J)
conditions.used: male, C57BL6/J, mouse; mice, 20 mg/kg oral route, plasma
The following compounds are shown together with reported half-life values.
Note: unit h is implicit; provide only the numeric part.

Study these solved cases before continuing.
1. CSc1cc(/C=N/O)nc2c1ccc1cccnc12 : 0.3
2. COCCOc1cc(/C=N/O)nc2c1ccc1cccnc12 : 3.9
3. CC(C)Sc1cc(/C=N/O)nc2c1ccc1cccnc12 : 1.66

Let's switch to this compound now.
In one line, give reported half-life of the entry CCN(CC)CCOc1cc(/C=N/O)nc2c1ccc1cccnc12 .
4

---

assay.explanation: Screening pharmacokinetic study, plasma and brain (LC-MS/MS)
Type: in vivo, mice (C57BL6/J)
conditions.used: male, C57BL6/J, mouse; mice, 20 mg/kg oral route, plasma
The following compounds are shown together with reported Cmax values.
Note: unit µg/mL is implicit; provide only the numeric part.

In one line, give reported Cmax of the entry CSc1cc(/C=N/O)nc2c1ccc1cccnc12 .
0.0208

In one line, give reported Cmax of the entry CC(C)Sc1cc(/C=N/O)nc2c1ccc1cccnc12 .
0.106

In one line, give reported Cmax of the entry COCCOc1cc(/C=N/O)nc2c1ccc1cccnc12 .
0.396

In one line, give reported Cmax of the entry CCN(CC)CCOc1cc(/C=N/O)nc2c1ccc1cccnc12 .
0.149

---

assay.explanation: Screening pharmacokinetic study, plasma and brain (LC-MS/MS)
Format: in vivo, mice (C57BL6/J)
conditions.used: male, C57BL6/J, mouse; mice, 200 mg/kg oral route, brain
measurement.kind: Tmax (h)
Note: unit h is implicit; provide only the numeric part.

1) CCN(CC)CCOc1cc(/C=N/O)nc2c1ccc1cccnc12 [Compound 10] : 2

Let's switch to this compound now.
In one line, give reported Tmax of the entry CSc1cc(/C=N/O)nc2c1ccc1cccnc12 [Compound 4] .
0.5
